Biological target: EP4 (Homo sapiens, UniProt P35408)
Sequence (P35408 whole entry): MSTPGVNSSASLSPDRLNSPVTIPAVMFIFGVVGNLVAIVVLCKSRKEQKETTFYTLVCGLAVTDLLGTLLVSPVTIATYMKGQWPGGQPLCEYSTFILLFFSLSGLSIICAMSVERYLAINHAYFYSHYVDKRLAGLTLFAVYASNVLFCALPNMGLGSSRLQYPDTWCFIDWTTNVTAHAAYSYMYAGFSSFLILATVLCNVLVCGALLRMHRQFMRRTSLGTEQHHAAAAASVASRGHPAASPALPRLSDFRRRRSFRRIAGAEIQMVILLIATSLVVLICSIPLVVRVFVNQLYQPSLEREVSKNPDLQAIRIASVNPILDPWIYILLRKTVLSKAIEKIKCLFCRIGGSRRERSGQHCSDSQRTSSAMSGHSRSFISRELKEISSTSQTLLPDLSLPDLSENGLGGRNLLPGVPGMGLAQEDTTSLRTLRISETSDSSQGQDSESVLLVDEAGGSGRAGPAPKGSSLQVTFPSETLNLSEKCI
Assay: Functional calcium flux assay, EP4
Details: stably transfected HEK293 cells; PGE2 10 nM; read-out: EP4 Ca2+-flux assay IC50
measured.metric: IC50 (nM)

• CCOc1cc(-c2ccc(C(C)n3ncc4cccc(C(=O)NC5CC6(C5)CC(C(=O)O)C6)c43)cc2)ccn1 (racemic) = 2.9
• COc1cccc(-c2ccc(C(C)n3ccc4c(F)ccc(C(=O)NC5CC6(C5)CC(C(=O)O)C6)c43)cc2)c1 (racemic) [Example 117] = 14

====

Target: EP4 (Homo sapiens)
Assay: Functional calcium flux assay, EP4
Details: stably transfected HEK293 cells; PGE2 10 nM; read-out: EP4 Ca2+-flux assay IC50
measured.metric: IC50

* CCOc1cccc(-c2ccc(C(C)n3ncc4c(Cl)ccc(C(=O)NC5CC6(C5)CC(C(=O)O)C6)c43)cc2)n1 (racemic) | 1.3 nM
* CCOc1cc(-c2ccc(C(C)n3ncc4c(Cl)ccc(C(=O)NC5CC6(C5)CC(C(=O)O)C6)c43)cc2)ccn1 (single isomer, unassigned) [Example 131] | < 1 nM
* COc1ccc(-c2ccc(Cn3ccc4c(F)ccc(C(=O)NC5CC6(C5)CC(C(=O)O)C6)c43)cc2)cc1F (racemic) [Example 16] | < 1 nM
* CCOc1cccc(-c2ccc(Cn3ccc4c(F)ccc(C(=O)NC5CC6(C5)CC(C(=O)O)C6)c43)cc2)c1 (stereo not drawn) | < 1 nM
* COc1cc(F)cc(-c2ccc(Cn3ccc4c(F)ccc(C(=O)NC5CC6(C5)CC(C(=O)O)C6)c43)cc2)c1 (stereo not drawn) | < 1 nM
* CC(C)(C)c1ccc(Cn2ccc3c(C#N)ccc(C(=O)NC4CC5(C4)CC(C(=O)O)C5)c32)cc1 (racemic) | < 1 nM
* COc1ccc(-c2ccc(Cn3ccc4c(F)ccc(C(=O)NC5CC6(C5)CC(C(=O)O)C6)c43)cc2)cc1F (stereo not drawn) [Example 47] | < 1 nM
* COc1cc(-c2ccc(Cn3ncc4c(Cl)ccc(C(=O)NC5CC6(C5)CC(C(=O)O)C6)c43)cc2)ccn1 (stereo not drawn) | 4.4 nM
* CNC(=O)c1cccc(-c2ccc(Cn3ncc4c(Cl)ccc(C(=O)NC5CC6(C5)CC(C(=O)O)C6)c43)cc2)n1 (stereo not drawn) | < 1 nM
* O=C(NC1CC2(C1)CC(C(=O)O)C2)c1ccc(Cl)c2cnn(Cc3ccc4ccccc4c3)c12 (stereo not drawn) | < 1 nM
* CCOc1cccc(-c2ccc(Cn3ncc4c(Cl)ccc(C(=O)NC5CC6(C5)CC(C(=O)O)C6)c43)cc2)n1 (stereo not drawn) | < 1 nM
* CNC(=O)c1cc(-c2ccc(Cn3ccc4c(F)ccc(C(=O)NC5CC6(C5)CC(C(=O)O)C6)c43)cc2)ccn1 (stereo not drawn) | < 1 nM
* COc1cc(-c2ccc(Cn3ccc4c(Cl)ccc(C(=O)NC5CC6(C5)CC(C(=O)O)C6)c43)cc2)ccn1 (stereo not drawn) | 2.2 nM
* O=C(NC1CC2(C1)CC(C(=O)O)C2)c1ccc(F)c2ccn(Cc3ccc4cc(F)ccc4c3)c12 (stereo not drawn) [Example 37] | < 1 nM
* O=C(O)CC1CC2(C1)CC(NC(=O)c1cc(Cl)cc3cnn(Cc4ccc(-c5ccccc5)c(F)c4)c13)C2 (stereo not drawn) [Example 152] | < 1 nM
* N#Cc1cccc(-c2ccc(Cn3ccc4c(F)ccc(C(=O)NC5CC6(C5)CC(C(=O)O)C6)c43)cc2)c1 (racemic) [Example 15] | < 1 nM
* O=C(NC1CC2(C1)CC(C(=O)O)C2)c1ccc(F)c2ccn(Cc3ccc4cc(Br)ccc4c3)c12 (stereo not drawn) | < 1 nM
* COc1cc(C#N)cc(-c2ccc(Cn3ccc4c(F)ccc(C(=O)NC5CC6(C5)CC(C(=O)O)C6)c43)cc2)c1 (racemic) [Example 20] | < 1 nM
* CCOc1cc(-c2ccc(C(C)n3ncc4c(Cl)ccc(C(=O)NC5CC6(C5)CC(C(=O)O)C6)c43)cc2)ccn1 (racemic) [Example 124] | 3.9 nM
* COc1ccc2cc(-c3ccc(Cn4ccc5c(F)ccc(C(=O)NC6CC7(CC(CC(=O)O)C7)C6)c54)cc3)ccc2n1 (single isomer, unassigned) [Example 137] | 3.2 nM
* O=C(NC1CC2(C1)CC(C(=O)O)C2)c1cccc2cnn(Cc3ccc(-c4ccccc4)cc3)c12 (racemic) | 3 nM
* CC(c1ccc(-c2ccccc2)cc1)n1ncc2cccc(C(=O)NC3CC4(C3)CC(C(=O)O)C4)c21 (racemic) [Example 112] | 1.8 nM
* COc1ccc2cc(Cn3ccc4c(F)ccc(C(=O)NC5CC6(C5)CC(C(=O)O)C6)c43)ccc2c1 (stereo not drawn) | < 1 nM
* O=C(NC1CC2(C1)CC(C(=O)O)C2)c1ccc(F)c2ccn(Cc3ccc(-c4ccc(OC5COC5)c(Cl)c4)cc3)c12 (racemic) | 1 nM
* COc1ncc(-c2ccc(Cn3ccc4c(F)ccc(C(=O)NC5CC6(C5)CC(C(=O)O)C6)c43)cc2)cc1Cl (racemic) | 7 nM
* COc1cc(-c2ccc(Cn3ccc4c(F)ccc(C(=O)NC5CC6(C5)CC(C(=O)O)C6)c43)cc2)ccc1F (racemic) [Example 19] | < 1 nM
* CCOc1ncc(C(=O)NC2CC3(C2)CC(C(=O)O)C3)c2c1ccn2Cc1ccc(-c2ccccc2)cc1 (stereo not drawn) | < 1 nM

Hey, just so you know, these numbers are from patent US12215093B2.
